system: M19-MEL melanoma; experiment: NCI tumour cell line growth inhibition, 48 h
ASSAY_ENDPOINT: TGI

[
  {
    "COMPOUND": "COc1ccc(C(=O)OC2C=COC(C)C2OC(=O)c2ccc(OC)cc2)cc1 (stereo not drawn)",
    "SYSTEM_NAME": "M19-MEL melanoma",
    "ASSAY_ENDPOINT": "TGI",
    "RESULT": "> 100 µM"
  },
  {
    "COMPOUND": "Cc1ccc(/C=C/C(=O)c2sc(-c3cccnc3)nc2C)cc1",
    "SYSTEM_NAME": "M19-MEL melanoma",
    "ASSAY_ENDPOINT": "TGI",
    "RESULT": "> 100 µM"
  },
  {
    "COMPOUND": "CC1=CC(=O)C(=O)C2=C1OC1(C2)C(C)CCC2C3(C)CCC(O)C(C)(C)C3CCC21C (stereo not drawn)",
    "SYSTEM_NAME": "M19-MEL melanoma",
    "ASSAY_ENDPOINT": "TGI",
    "RESULT": "34.4 µM"
  },
  {
    "COMPOUND": "Cc1cccc2[s+]snc12",
    "SYSTEM_NAME": "M19-MEL melanoma",
    "ASSAY_ENDPOINT": "TGI",
    "RESULT": "> 100 µM"
  },
  {
    "COMPOUND": "C=C1C(=O)[C@@]23CC1C(O)[C@@H](OC(C)=O)[C@@H]2C1(C)C(OC(C)=O)C[C@@H](OC(C)=O)C(C)(C)[C@@H]1C[C@H]3OC(C)=O (stereo partly drawn)",
    "SYSTEM_NAME": "M19-MEL melanoma",
    "ASSAY_ENDPOINT": "TGI",
    "RESULT": "4.85 µg/mL"
  },
  {
    "COMPOUND": "COC(=O)C12CC(c3ccccc31)C1C(=O)OC(=O)C12 (stereo not drawn)",
    "SYSTEM_NAME": "M19-MEL melanoma",
    "ASSAY_ENDPOINT": "TGI",
    "RESULT": "> 100 µM"
  },
  {
    "COMPOUND": "CCOC(=O)C1=C(Nc2ccc(Cl)cc2Cl)OC/C1=N\\NS(=O)(=O)c1ccc(C)cc1",
    "SYSTEM_NAME": "M19-MEL melanoma",
    "ASSAY_ENDPOINT": "TGI",
    "RESULT": "> 100 µM"
  },
  {
    "COMPOUND": "CC(=O)Nc1c(C)ccc2c1C(=O)c1ccccc1C2=O",
    "SYSTEM_NAME": "M19-MEL melanoma",
    "ASSAY_ENDPOINT": "TGI",
    "RESULT": "> 100 µM"
  },
  {
    "COMPOUND": "N=C(N)c1csc([C@@H]2O[C@H](CO)[C@@H](O)[C@H]2O)n1",
    "SYSTEM_NAME": "M19-MEL melanoma",
    "ASSAY_ENDPOINT": "TGI",
    "RESULT": "> 100 µM"
  },
  {
    "COMPOUND": "COC(=O)c1ccc(N=NN(C)COc2ccc([N+](=O)[O-])cc2)cc1",
    "SYSTEM_NAME": "M19-MEL melanoma",
    "ASSAY_ENDPOINT": "TGI",
    "RESULT": "> 100 µM"
  },
  {
    "COMPOUND": "O=C(c1ccco1)N(C(=S)N1CCN(c2ccccn2)CC1)C1CCCCC1",
    "SYSTEM_NAME": "M19-MEL melanoma",
    "ASSAY_ENDPOINT": "TGI",
    "RESULT": "> 100 µM"
  },
  {
    "COMPOUND": "COc1ccc2cc3[n+](cc2c1OC)CCc1cc(O)c(O)cc1-3",
    "SYSTEM_NAME": "M19-MEL melanoma",
    "ASSAY_ENDPOINT": "TGI",
    "RESULT": "> 100 µM"
  },
  {
    "COMPOUND": "C[C@]12CC[C@H](OCCC#N)CC1=CC[C@@H]1C2CC[C@]2(C)/C(=N/OCCC#N)CCC12 (stereo partly drawn)",
    "SYSTEM_NAME": "M19-MEL melanoma",
    "ASSAY_ENDPOINT": "TGI",
    "RESULT": "> 100 µM"
  }
]
